Numbers sourced from patent US20210403591A1.

assayed_target: T1, recombinant human TfR-1, His-tagged (Sino Biological 11020-H07H) (human, UniProt P02786 89-760)
T1 construct: bought; His-tagged; also called hTfR1; hTfR-1
T1 sequence (P02786 89-760 limits assumed): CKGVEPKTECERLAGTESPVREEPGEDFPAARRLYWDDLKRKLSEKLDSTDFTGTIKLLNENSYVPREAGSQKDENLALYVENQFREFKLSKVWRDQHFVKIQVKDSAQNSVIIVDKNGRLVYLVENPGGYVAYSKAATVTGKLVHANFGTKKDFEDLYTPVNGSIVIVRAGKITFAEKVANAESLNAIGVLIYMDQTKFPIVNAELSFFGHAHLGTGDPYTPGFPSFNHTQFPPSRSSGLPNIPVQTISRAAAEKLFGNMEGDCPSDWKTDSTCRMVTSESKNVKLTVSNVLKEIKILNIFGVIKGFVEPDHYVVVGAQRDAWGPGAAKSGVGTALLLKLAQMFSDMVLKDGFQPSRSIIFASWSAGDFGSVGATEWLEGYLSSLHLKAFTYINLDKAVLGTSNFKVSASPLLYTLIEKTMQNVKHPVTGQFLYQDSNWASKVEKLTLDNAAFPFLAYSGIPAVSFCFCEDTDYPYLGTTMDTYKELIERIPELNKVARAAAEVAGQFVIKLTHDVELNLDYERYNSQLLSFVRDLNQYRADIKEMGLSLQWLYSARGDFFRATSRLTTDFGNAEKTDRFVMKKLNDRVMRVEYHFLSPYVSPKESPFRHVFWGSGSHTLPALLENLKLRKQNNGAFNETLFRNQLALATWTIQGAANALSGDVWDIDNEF
assay_details: SPR, His-captured TfR1
Method: Detailed binding kinetic analyses were performed to gain a better understanding of the relationship between affinity and brain penetration of the Clone C variants. Biacore surface plasmon resonance (SPR) analysis using immobilised mouse and human TfR-1 was performed for selected clones (Table 2). Binding kinetics of VNAR-Fcs was determined by surface plasmon resonance (Biacore T200, GE Healthcare). […] Sensorgrams were fitted and kinetic constants were determined using Biacore T200 Evaluation software. […]
# if value of kon reaches 100000 M⁻¹ s⁻¹, tag true (1); if it stays below, tag false (0)

Take a look at these entries with their results.
Clone C variant 14 VNAR-hFc (Fc fusion, not shown: a dimerising Fc or GST) ARVDQTPQTITKETGESLTINCVLRDSNCALSSTYWYRKKSGSTNEENISKGGRYVETVNSGSKSFSLRINDLTVEDSGTYRCNVVQYPQQDRPFWCDVYGDGTAVTVN : false (0)
Clone C variant 8 VNAR-hFc (Fc fusion, not shown: a dimerising Fc or GST) ARVDQTPQTITKETGESLTINCVLRDSNCALSSTYWYRKKSGSTNEENISKGGRYVETVNSGSKSFSLRINDLTVEDSGTYRCNVVQWPSYNNYFWCDVYGDGTAVTVN : true (1)
Clone C variant 10 VNAR-hFc (Fc fusion, not shown: a dimerising Fc or GST) ARVDQTPQTITKETGESLTINCVLRDSNCALSSTYWYRKKSGSTNEENISKGGRYVETVNSGSKSFSLRINDLTVEDSGTYRCNVVQYPFLENYFWCDVYGDGTAVTVN : true (1)

## Task Is reported kon greater than or equal to 100000 M⁻¹ s⁻¹ here: Clone C variant 25 VNAR-hFc (Fc fusion, not shown: a dimerising Fc or GST) ARVDQTPQTITKETGESLTINCVLRDSNCALSSTYWYRKKSGSTNEENISKGGRYVETVNSGSKSFSLRINDLTVEDSGTYRCNVVQYPSYDNPFWCDVYGDGTAVTVN
## Result false (0)

## Task Is reported kon greater than or equal to 100000 M⁻¹ s⁻¹ here: Clone C variant 20 VNAR-hFc (Fc fusion, not shown: a dimerising Fc or GST) ARVDQTPQTITKETGESLTINCVLRDSNCALSSTYWYRKKSGSTNEENISKGGRYVETVNSGSKSFSLRINDLTVEDSGTYRCNVVQYPSHNNYFWCDVYGDGTAVTVN
## Result false (0)

## Task Is reported kon greater than or equal to 100000 M⁻¹ s⁻¹ here: Clone C variant 24 VNAR-hFc (Fc fusion, not shown: a dimerising Fc or GST) ARVDQTPQTITKETGESLTINCVLRDSNCALSSTYWYRKKSGSTNEENISKGGRYVETVNSGSKSFSLRINDLTVEDSGTYRCNVVQYPSWDNYFWCDVYGDGTAVTVN
## Result false (0)

## Task Is reported kon greater than or equal to 100000 M⁻¹ s⁻¹ here: Clone C variant 5 VNAR-hFc (Fc fusion, not shown: a dimerising Fc or GST) ARVDQTPQTITKETGESLTINCVLRDSNCALSSTYWYRKKSGSTNEENISKGGRYVETVNSGSKSFSLRINDLTVEDSGTYRCNVVQSPSYNNYFWCDVYGDGTAVTVN
## Result true (1)

## Task Is reported kon greater than or equal to 100000 M⁻¹ s⁻¹ here: Clone C variant 23 VNAR-hFc (Fc fusion, not shown: a dimerising Fc or GST) ARVDQTPQTITKETGESLTINCVLRDSNCALSSTYWYRKKSGSTNEENISKGGRYVETVNSGSKSFSLRINDLTVEDSGTYRCNVVQYPSQQNYFWCDVYGDGTAVTVN
## Result true (1)
